Data provenance: patent US11883539B2

Test: Single-dose pharmacokinetics study in rats (BBR•HCl, EPA-EE, BBR + EPA-EE; 3 rats per group)
Type: in vivo
Conditions: male, Sprague-Dawley, rat; SD rats, single oral administration, EPA-EE 45.48 mg/Kg (alone or + BBR•HCl 51.13 mg/Kg), plasma; read-out: EPA (Free acid) Cmax
Description: In the single-dose pharmacokinetics study in rats, after 7-day acclimation, healthy male Sprague-Dawley (SD) rats with the body weight of 210-250 g were randomized into four groups as follows (3 rats per group). The rats in each group were orally treated with the suspensions of the corresponding testing articles indicated above in 0.5% gum tragacanth respectively. […] The obtained plasma from each sample was stored at −80° C. until being analyzed. […]
QUANTITY MEASURED: Cmax (ng/mL)
A number alone suffices; assume ng/mL.

Endpoint output: Cmax of CCC=CCC=CCC=CCC=CCC=CCCCC(=O)O (stereo in doubt) . Value?
629

====

experiment: Single-dose pharmacokinetics study in rats (BBR•HCl, EPA-EE, BBR + EPA-EE; 3 rats per group); assay type: in vivo; conditions: male, Sprague-Dawley, rat; SD rats, single oral administration, EPA-EE 45.48 mg/Kg (alone or + BBR•HCl 51.13 mg/Kg), plasma; read-out: EPA (Free acid) AUC(0-t)
QUANTITY MEASURED: AUC(0-t) (ng·h/mL)
A number alone suffices; assume ng·h/mL.

Endpoint output: AUC(0-t) of CCC=CCC=CCC=CCC=CCC=CCCCC(=O)O (stereo in doubt) . Value?
3750

====

assay: Single-dose pharmacokinetics study in rats (BBR•HCl, EPA-EE, BBR + EPA-EE; 3 rats per group); type: in vivo; conditions: male, Sprague-Dawley, rat; SD rats, single oral administration, BBR•HCl 51.13 mg/Kg (alone or + EPA-EE 45.48 mg/Kg), plasma; read-out: BBR Cmax
QUANTITY MEASURED: Cmax

Endpoint output: Cmax of COc1ccc2cc3[n+](cc2c1OC)CCc1cc2c(cc1-3)OCO2 . Value?
0.95 ng/mL

====

assay: Single-dose pharmacokinetics study in rats (BBR•HCl, EPA-EE, BBR + EPA-EE; 3 rats per group); type: in vivo; conditions: male, Sprague-Dawley, rat; SD rats, single oral administration, BBR•HCl 51.13 mg/Kg (alone or + EPA-EE 45.48 mg/Kg), plasma; read-out: BBR AUC(0-t)
QUANTITY MEASURED: AUC(0-t)
Report as: number unit

Endpoint output: AUC(0-t) of COc1ccc2cc3[n+](cc2c1OC)CCc1cc2c(cc1-3)OCO2 . Value?
7.46 ng·h/mL
